Assign speed of sound to each entry below.
Details: 303.15 K; 101.3 kPa; Liquid; Linear variable-path acoustic interferometer
Answers are plain numbers, in m/s.

// for each molecule below, give its speed of sound
1. CCN(CC)c1ccccc1
2. C1CCOC1 [tetrahydrofuran]

1. 1434
2. 1254

// for each molecule below, give its speed of sound
1. CC(C)OC(C)C
2. CN(C)c1ccccc1

1. 976
2. 1468

---

Assign mass density to each entry below.
Settings: 313.15 K; 101.3 kPa; Liquid; Pycnometric method
± gives the expanded uncertainty stated by the source.
Provide the measurement as a number trailed by its unit.

# compound, property.name, reported.value
data = [
    ("CC(C)OC(C)C", "mass density", "702.5 ± 0.3 kg/m3"),
    ("CCN(CC)c1ccccc1", "mass density", "917.6 ± 0.3 kg/m3"),
    ("CN(C)c1ccccc1", "mass density", "939.8 ± 0.3 kg/m3"),
]

Now examine the next entry.
Look up mass density: C1CCOC1 [tetrahydrofuran]
865.7 ± 0.3 kg/m3
